Just for reference, paper PMC6858373 is where these values come from.

Reported Toxicity Assay % Fluor values are given for each entry in this list.
Tested on: Clone V cells
Details: human, 16 h, 30 µM
Counter-ions that a name gives are not always drawn.
The reply should contain only the number, in %.

Name the reported Toxicity Assay % Fluor value associated with the compound CCn1c(-c2nonc2N)nc2cnc(Oc3cccc(NC(=O)c4ccc(OCCN5CCOCC5)cc4)c3)cc21 [GSK 269962A] 101.41

Entry to check: COc1cccc2c1C(=O)c1c(O)c3c(c(O)c1C2=O)C[C@@](O)(C(=O)CO)C[C@@H]3O[C@H]1C[C@H](N)[C@H](O)[C@H](C)O1 [Doxorubicin hydrochloride] 94.10

Again, but for NC1(c2ccc(-c3nc4ccn5c(=O)[nH]nc5c4cc3-c3ccccc3)cc2)CCC1 [MK-2206] 95.56
